Provenance of the data: PubChem BioAssay (NCATS)

# test.details: Quantitative High-Throughput drug screen in 47 multiple myeloma cell lines against the NCATS MIPE library collection: OCIMY5_PLB cell viability assay (AID 1918988); also: potency is read from the fitted curve at half-maximal effect; nearly all actives have a fitted effect of over 65% in size
# run.parameters: OCI-MY5 myeloma viability, ATP luminescence, 48 h; series mostly up to 45.8 µM
Inconclusive results are not listed. Calls of active or inactive are those of the source. Calls follow the shape of the dose curve; as a rule, active = well fitted cell-killing curve with a large enough effect; inconclusive = small, poorly fitted or top-dose-only effect, or effect the other way; inactive = no such curve, though single readings can be large or run the other way.
Hi there, use one of these labels in your reply, thanks! active, inactive

Exercise: Outcome? "CC(C)C[C@H](NC(=O)CNC(=O)c1cc(Cl)ccc1Cl)B(O)O"
Solution: active

Exercise: Outcome? "CN1CCN(c2cc(C(=O)Nc3ccc4c(c3)-c3c(c(C(N)=O)nn3-c3ccc(F)cc3)CC4)c(Cl)cn2)CC1"
Solution: active

Exercise: Outcome? "Nc1nccc(Oc2ccc(NC(=O)c3c[nH]cc(-c4ccc(F)cc4)c3=O)cc2F)c1Cl"
Solution: active

----------
# test.details: Quantitative High-Throughput drug screen in 47 multiple myeloma cell lines against the NCATS MIPE library collection: OCIMY7_PLB cell viability assay (AID 1918987); also: nearly all actives have a fitted effect of over 65% in size; also: potency is read from the fitted curve at half-maximal effect
# run.parameters: OCI-MY7 myeloma viability, CellTiter-Glo ATP, 48 h; series mostly up to 45.8 µM
Records with an inconclusive call do not appear. The source made the active and inactive calls. Calls follow the shape of the dose curve; as a rule, active = well fitted cell-killing curve with a large enough effect; inconclusive = small, poorly fitted or top-dose-only effect, or effect the other way; inactive = no such curve, though single readings can be large or run the other way.
parameter: Potency

As a guide, the following entries are already answered.
{"columns": ["molecule", "Potency"],
 "data": [
  ["NC1(Cc2ccc(Cl)cc2)CCN(c2ncnc3[nH]ccc23)CC1", "5900 nM (active)"],
  ["CN1CCN(c2ccc3nc(-c4c(N)c5c(F)cccc5[nH]c4=O)[nH]c3c2)CC1", "3320 nM (active)"],
  ["CC=C1NC(=O)[C@H]2CSSCCC=C[C@H](CC(=O)N[C@H](C(C)C)C(=O)N2)OC(=O)[C@H](C(C)C)NC1=O", "59 nM (active)"],
  ["COC(=O)Nc1nc2ccc(C(=O)c3ccc(F)cc3)cc2[nH]1", "296 nM (active)"],
  ["CC(=O)SC[C@@H](C)C(=O)N1CCC[C@H]1C(=O)N[C@@H](Cc1ccccc1)C(=O)O", "inactive"],
  ["CN1CC[C@@H](c2c(O)cc(O)c3c(=O)cc(-c4ccccc4Cl)oc23)[C@@H](O)C1", "29.6 nM (active)"],
  ["O=C(O)c1ccc2cc(-c3ccc(O)c(C45CC6CC(CC(C6)C4)C5)c3)ccc2c1", "105 nM (active)"],
  ["COc1cc2c(NC3CCN(C(C)C)CC3)nc(C3CCCCC3)nc2cc1OCCCN1CCCC1", "16600 nM (active)"],
  ["Clc1ccc2ncc(-c3cccc(NC4CNC4)n3)n2c1", "14800 nM (active)"],
  ["C1=CCOCc2cc(ccc2OCCN2CCCC2)Nc2nccc(n2)-c2cccc(c2)OCC1", "1180 nM (active)"]
]}

Give Potency for each listed item.
1. CC1(C)CC(=O)c2c(C(F)(F)F)nn(-c3ccc(C(N)=O)c(NC4CCC(OC(=O)CN)CC4)c3)c2C1 (stereo not drawn)
2. NC(=O)Nc1cc(-c2cccc(F)c2)sc1C(=O)N[C@H]1CCCNC1
3. Cn1c(CNc2ccc(C(=N)N)cc2)nc2cc(C(=O)N(CCC(=O)O)c3ccccn3)ccc21
4. c1cc(-c2cnn3cc(-c4ccc(OCCN5CCCCC5)cc4)cnc23)ccn1
5. O=c1c2ccccc2nc2n1CCc1c-2[nH]c2ccccc12
6. CNC(=O)c1ccccc1Nc1nc(Nc2ccc(N3CCOCC3)cc2OC)ncc1Cl

Solution:
["83.3 nM (active)", "264 nM (active)", "inactive", "2090 nM (active)", "18700 nM (active)", "332 nM (active)"]

----------
# test.details: qHTS of pediatric cancer cell lines to identify multiple opportunities for drug repurposing: Confirmatory screen for Saos-2 cells (AID 1347127); also: nearly all actives have a fitted effect of over 60% in size; also: potency is read from the fitted curve at half-maximal effect
# run.parameters: Saos-2 osteosarcoma cell viability; series mostly up to 45.9 µM
Inconclusive results are not listed. Activity calls are given as the source filed them. Calls come from the whole dose curve; as a rule, active = well fitted cell-killing curve with a large enough effect; inconclusive = small, poorly fitted or top-dose-only effect, or effect the other way; inactive = no such curve, though single readings can be large or run the other way.
parameter: Potency

{"columns": ["smiles.entry", "parameter", "reading"],
 "data": [
  ["COc1cc(=C2C=c3ccccc3=N2)[nH]c1=Cc1[nH]c(C)cc1C", "Potency", "8.27 µM (active)"],
  ["CC[C@@H]1C(=O)N(C)c2cnc(Nc3ccc(C(=O)NC4CCN(C)CC4)cc3OC)nc2N1C1CCCC1", "Potency", "0.0369 µM (active)"],
  ["CC(C)(C)c1cc(C(C)(C)C)c(NC(=O)c2c[nH]c3ccccc3c2=O)cc1O", "Potency", "16.5 µM (active)"],
  ["CC1(C)CCC(c2ccc(Cl)cc2)=C(CN2CCN(c3ccc(C(=O)NS(=O)(=O)c4ccc(N[C@H](CCN5CCOCC5)CSc5ccccc5)c(S(=O)(=O)C(F)(F)F)c4)cc3)CC2)C1", "Potency", "inactive"],
  ["COc1cccc(Nc2c(C(N)=O)cnc3c(C)cc(S(=O)(=O)c4cccc(C(=O)N(C)C)c4)cc23)c1", "Potency", "inactive"],
  ["Cc1nc(N)ncc1-c1nc(N2CCOCC2)c2sc(C(C)(C)O)cc2n1", "Potency", "1.47 µM (active)"],
  ["Cc1ccc2nc(NC(=O)CSc3nc4c(c(=O)n3-c3ccccc3)SCC4)sc2c1", "Potency", "inactive"]
]}

Summary for this compound, "Cc1cnc(-c2cnc(NCCNc3ccc(C#N)cn3)nc2-c2ccc(Cl)cc2Cl)[nH]1" : Potency is inactive

----------
# test.details: Quantitative High-Throughput drug screen in 47 multiple myeloma cell lines against the NCATS MIPE library collection: KMS12PE_JCRB cell viability assay (AID 1918972); also: nearly all actives have a fitted effect of over 30% in size
# run.parameters: KMS12PE myeloma viability, CellTiter-Glo ATP, 48 h; series mostly up to 45.8 µM
Inconclusive results are not listed. Activity calls are given as the source filed them. Calls follow the shape of the dose curve; as a rule, active = well fitted cell-killing curve with a large enough effect; inconclusive = small, poorly fitted or top-dose-only effect, or effect the other way; inactive = no such curve, though single readings can be large or run the other way.
Hi there, use one of these labels in your reply, thanks! active, inactive

Solved entries:
{"columns": ["molecule", "answer.label"],
 "data": [
  ["Cc1[nH]c2ccccc2c1CCNCc1ccc(C=CC(=O)NO)cc1", "active"],
  ["O=c1c2ccccc2nc2n1CCc1c-2[nH]c2ccccc12", "inactive"],
  ["O=C(NC1CCNCC1)c1[nH]ncc1NC(=O)c1c(Cl)cccc1Cl", "active"]
]}

Exercise: Outcome? "CCCCCN(CCC12CC3CC(CC(C3)C1)C2)C(=O)NCCCc1ccncc1"
Solution: active

Exercise: Outcome? "Nc1ncnc2c1c(-c1cnc3[nH]ccc3c1)nn2C1CCCC1"
Solution: active

Exercise: Outcome? "Cc1nc2ccc(CN(C)c3ccc(C(=O)N[C@@H](CCC(=O)O)C(=O)O)s3)cc2c(=O)[nH]1"
Solution: active

----------
# test.details: qHTS of pediatric cancer cell lines to identify multiple opportunities for drug repurposing: Primary screen for SK-N-MC cells (AID 1347093)
# run.parameters: SK-N-MC viability, CellTiter-Glo luminescence, 48 h; series mostly up to 46 µM
Inconclusive results are not listed. Active and inactive are the calls of the source. Calls follow the shape of the dose curve; as a rule, active = well fitted cell-killing curve with a large enough effect; inconclusive = small, poorly fitted or top-dose-only effect; inactive = no such curve, though single readings can be large or run the other way.
Hi there, use one of these labels in your reply, thanks! active, inactive

Exercise: Outcome? "COc1ccc(-n2nc(C(N)=O)c3c2C(=O)N(c2ccc(N4CCCCC4=O)cc2)CC3)cc1"
Solution: inactive

Exercise: Outcome? "COc1cc2nccc(Oc3ccc(NC(=O)C4(C(=O)Nc5ccc(F)cc5)CC4)cc3)c2cc1OC"
Solution: active

Exercise: Outcome? "COC(=O)[C@]12CCC(C)(C)C[C@@H]1[C@@H]1C(=O)C=C3[C@@]4(C)C=C(C#N)C(=O)C(C)(C)[C@@H]4CC[C@@]3(C)[C@]1(C)CC2"
Solution: active

Exercise: Outcome? "CNC(=O)c1ccc(N2C(=S)N(c3cnc(C#N)c(C(F)(F)F)c3)C(=O)C23CCC3)cc1F"
Solution: active

Exercise: Outcome? "Cc1c(C)n(Cc2ccc(-c3ccccc3C(=O)O)cc2)c2ccc(C(=O)N[C@@H](C)c3ccc([N+](=O)[O-])cc3)cc12"
Solution: active

Exercise: Outcome? "OCCCNc1cc(-c2ccnc(Nc3cccc(Cl)c3)n2)ccn1"
Solution: active

Exercise: Outcome? "C=CC(=O)Nc1cc2c(Nc3ccc(F)c(Cl)c3)ncnc2cc1OCCCN1CCOCC1"
Solution: active

Exercise: Outcome? "CCc1c2c(nc3ccc(O)cc13)-c1cc3c(c(=O)n1C2)COC(=O)[C@]3(O)CC"
Solution: active

Exercise: Outcome? "N#CCNC(=O)c1ccc(-c2ccnc(Nc3ccc(N4CCOCC4)cc3)n2)cc1"
Solution: active

Exercise: Outcome? "C=CCn1c(=O)c2cnc(Nc3ccc(N4CCN(C)CC4)cc3)nc2n1-c1cccc(C(C)(C)O)n1"
Solution: active

Exercise: Outcome? "Cc1cc(CN2CCN(c3c(Br)cnc4nc(-c5ccc(N6CCN(C)CC6)cc5)[nH]c34)CC2)no1"
Solution: active

Exercise: Outcome? "Nc1cc(C(F)(F)F)c(-c2cc(N3CCOCC3)nc(N3CCOCC3)n2)cn1"
Solution: active

Exercise: Outcome? "COCCn1c2c([n+](Cc3cnccn3)c1C)C(=O)c1ccccc1C2=O"
Solution: active

Exercise: Outcome? "O=C(Cc1ccc(-c2ccc(OCCN3CCOCC3)cc2)cn1)NCc1ccccc1"
Solution: active

Exercise: Outcome? "Cn1c2ccccc2c2c3c(c4c5ccccc5n(CCC#N)c4c21)CNC3=O"
Solution: active
